# Species: Rattus norvegicus
# TEST METHOD NOTES: Inhibition of L-5-HTP (L-5-hydroxytryptophan) induced head twitches in rat
# Format: functional
OBSERVATION TYPE: ED50 (µmol/kg)

| MOLECULE | OBSERVATION TYPE | READOUT UNIT | REL | READOUT NUMBER |
| --- | --- | --- | --- | --- |
| O.OC1=NCCN1CCN1CCN(C2CC(c3ccc(O)cc3)c3ccccc32)CC1 (centres undefined) | ED50 | µmol/kg | > | 49 |
| O=C(O)/C=C\C(=O)O.O=C(O)/C=C\C(=O)O.O=C1NCCN1CCN1CCN(C2CC(c3ccccc3)c3ccccc32)CC1 (centres undefined) | ED50 | µmol/kg | = | 26 |
| Fc1ccc([C@@H]2C[C@@H](N3CCNCC3)c3ccccc32)cc1.O=C(O)/C=C\C(=O)O.O=C(O)/C=C\C(=O)O | ED50 | µmol/kg | = | 1.7 |

----------
# TARGET OR TEST SYSTEM: Serotonin 2 (5-HT2) receptor (Rattus norvegicus, UniProt P30994+P08909+P14842)
# TEST METHOD NOTES: Inhibition of [3H]spiperone binding to 5-hydroxytryptamine 2 receptor from rat cortical membranes
# Assay type: cell membranes, Membrane
OBSERVATION TYPE: log10 of IC50 (log10 of the value in nM)

| MOLECULE | log10 of IC50 |
| --- | --- |
| Fc1ccc(C2CC(N3CCN(CCN4CCN=C4S)CC3)c3cc(F)ccc32)cc1 (stereo not drawn) | 0.69 |
| OCCN1CCN(C2CC(c3ccc(F)cc3)c3ccccc32)CC1 (stereo not drawn) | 1.81 |
| CN1CCN(CCN2CCN(C3CC(c4ccc(F)cc4)c4ccc(F)cc43)CC2)C1=O.Cl.Cl (stereo not drawn) | 0.52 |
| CN1CCN([C@@H]2C[C@@H](c3ccc(F)cc3)c3ccc(F)cc32)CC1 | 0.69 |
| O.O=C1NCCN1CCN1CCN([C@H]2C[C@H](c3ccc(F)cc3)c3ccccc32)CC1 | 2.76 |
| O.OC1=NCCN1CCN1CCN(C2CC(c3ccc(O)cc3)c3ccccc32)CC1 (stereo not drawn) | 2.49 |
| Cl.Cl.OC1=NCCN1CCCN1CCN(C2CC(c3ccc(F)cc3)c3ccc(F)cc32)CC1 (stereo not drawn) | 0.75 |
| O=C1NCCN1CCN1CCN(C2CC(c3ccc(F)cc3)c3ccccc32)CC1 (stereo not drawn) | 0.62 |

----------
# TARGET OR TEST SYSTEM: Sodium-dependent serotonin transporter (Rattus norvegicus, UniProt P31652)
# Sequence (P31652 whole entry): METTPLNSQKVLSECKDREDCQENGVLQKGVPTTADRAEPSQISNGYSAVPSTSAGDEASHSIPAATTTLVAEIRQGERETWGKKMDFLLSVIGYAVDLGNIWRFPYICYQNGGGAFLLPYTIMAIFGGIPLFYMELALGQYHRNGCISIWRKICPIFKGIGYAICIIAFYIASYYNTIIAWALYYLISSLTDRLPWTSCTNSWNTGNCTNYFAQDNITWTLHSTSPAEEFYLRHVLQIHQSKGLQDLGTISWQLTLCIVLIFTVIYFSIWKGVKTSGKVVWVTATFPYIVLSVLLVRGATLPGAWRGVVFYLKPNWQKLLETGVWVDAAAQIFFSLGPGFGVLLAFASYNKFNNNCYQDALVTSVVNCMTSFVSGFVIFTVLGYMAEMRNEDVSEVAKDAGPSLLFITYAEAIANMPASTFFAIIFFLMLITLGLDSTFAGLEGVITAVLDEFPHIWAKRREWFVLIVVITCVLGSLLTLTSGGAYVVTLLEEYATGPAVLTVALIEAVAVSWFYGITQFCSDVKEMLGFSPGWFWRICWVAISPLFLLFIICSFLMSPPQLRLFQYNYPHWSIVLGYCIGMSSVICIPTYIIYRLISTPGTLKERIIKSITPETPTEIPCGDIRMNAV
# TEST METHOD NOTES: In vitro inhibition of [3H]5-HT transporter uptake in rat brain synaptosomes
OBSERVATION TYPE: IC50

| MOLECULE | RESULT |
| --- | --- |
| O=C(O)/C=C\C(=O)O.O=C(O)/C=C\C(=O)O.O=C1NCCN1CCN1CCN([C@@H]2C[C@@H](c3ccc(F)cc3)c3ccc(F)cc32)CC1 | 720 nM |
| CN1CCN([C@@H]2C[C@@H](c3ccc(F)cc3)c3ccc(F)cc32)CC1 | 3900 nM |
| O=C(O)/C=C\C(=O)O.O=C(O)/C=C\C(=O)O.O=C1NCCN1CCN1CCN([C@H]2C[C@H](c3ccc(F)cc3)c3ccc(F)cc32)CC1 | 2200 nM |
| Fc1ccc([C@@H]2C[C@@H](N3CCNCC3)c3ccccc32)cc1.O=C(O)/C=C\C(=O)O.O=C(O)/C=C\C(=O)O | 42 nM |
| O=C1NCCN1CCN1CCN([C@@H]2C[C@@H](c3ccc(F)cc3)c3ccccc32)CC1 (stereo in doubt; (+)2) [IRINDALONE] | 14000 nM |
| Fc1ccc([C@H]2C[C@H](N3CCNCC3)c3ccccc32)cc1.O=C(O)/C=C\C(=O)O.O=C(O)/C=C\C(=O)O | 400 nM |
| O=C1NCCN1CCN1CCN([C@@H]2C[C@@H](c3ccc(F)cc3)c3ccccc32)CC1 (stereo in doubt; 27) [IRINDALONE] | > 100000 nM |
| O.O=C1NCCN1CCN1CCN([C@H]2C[C@H](c3ccc(F)cc3)c3ccccc32)CC1 | 9700 nM |
| CN1CCN([C@H]2C[C@H](c3ccc(F)cc3)c3ccc(F)cc32)CC1 | 610 nM |

----------
# Test system: Rattus norvegicus
# TEST METHOD NOTES: Inhibition of 5-HT induced pressor response in pithed rats, after intravenous administration of 0.02 mg/kg
# Format: functional
OBSERVATION TYPE: Change (%)

| COMPOUND | OBSERVATION TYPE | READOUT UNIT | READOUT NUMBER |
| --- | --- | --- | --- |
| O=C1NCCN1CCN1CCN([C@H]2C[C@H](c3ccccc3)c3ccccc32)CC1 | Change | % | -11 |
| Cl.Cl.O.O=C1OCCN1CCN1CCN(C2CC(c3ccc(F)cc3)c3ccc(F)cc32)CC1 (stereo not drawn) | Change | % | -27 |
| CN1CCN(CCN2CCN([C@H]3C[C@H](c4ccc(F)cc4)c4ccc(F)cc43)CC2)C1=O | Change | % | -6 |
| Cl.Cl.O=c1[nH]c2ccccc2c(=O)n1CCN1CCN(C2CC(c3ccc(F)cc3)c3ccccc32)CC1 (stereo not drawn) | Change | % | -35 |
| O.O=c1[nH]c2ccccc2c(=O)n1CCN1CCN(C2CC(c3ccc(F)cc3)c3ccc(F)cc32)CC1 (stereo not drawn) | Change | % | -52 |
| Fc1ccc([C@H]2C[C@H](N3CCNCC3)c3ccccc32)cc1.O=C(O)/C=C\C(=O)O.O=C(O)/C=C\C(=O)O | Change | % | -3 |
| O=C(c1ccc(F)cc1)C1CCN(CCn2c(=O)[nH]c3ccccc3c2=O)CC1 [KETANSERIN] | Change | % | -62 |
| O.O=C1NCCN1CCN1CCN([C@H]2C[C@H](c3ccc(F)cc3)c3ccccc32)CC1 | Change | % | -11 |
| O=C(O)/C=C\C(=O)O.O=C(O)/C=C\C(=O)O.O=C1NCCN1CCN1CCN([C@H]2C[C@H](c3ccc(F)cc3)c3ccc(F)cc32)CC1 | Change | % | 2 |
| CN1CCN([C@H]2C[C@H](c3ccc(F)cc3)c3ccc(F)cc32)CC1 | Change | % | -43 |
| Fc1ccc([C@@H]2C[C@@H](N3CCNCC3)c3ccccc32)cc1.O=C(O)/C=C\C(=O)O.O=C(O)/C=C\C(=O)O | Change | % | -40 |
| COc1ccc(C2CC(N3CCN(CCN4CCNC4=O)CC3)c3ccccc32)cc1 (stereo not drawn) | Change | % | -19 |
| O=C(O)/C=C\C(=O)O.O=C(O)/C=C\C(=O)O.O=C1NCCN1CCN1CCN([C@@H]2C[C@@H](c3ccccc3F)c3ccccc32)CC1 | Change | % | -18 |
| Fc1ccc(C2CC(N3CCNCC3)c3ccccc32)cc1 (stereo not drawn) | Change | % | -13 |
| CN1CCN(C2CC(c3ccc(F)cc3)c3ccc(F)cc32)CC1 (stereo not drawn) | Change | % | -85 |
| O.OC1=NCCN1CCN1CCN(C2CC(c3ccc(O)cc3)c3ccccc32)CC1 (stereo not drawn) | Change | % | -5 |
| OCCN1CCN(C2CC(c3ccc(F)cc3)c3ccccc32)CC1 (stereo not drawn) | Change | % | -15 |
| CN1CCN([C@@H]2C[C@@H](c3ccc(F)cc3)c3ccc(F)cc32)CC1 | Change | % | -79 |

----------
# TARGET OR TEST SYSTEM: D(2) dopamine receptor (Rattus norvegicus, UniProt P61169)
# Sequence (P61169 whole entry): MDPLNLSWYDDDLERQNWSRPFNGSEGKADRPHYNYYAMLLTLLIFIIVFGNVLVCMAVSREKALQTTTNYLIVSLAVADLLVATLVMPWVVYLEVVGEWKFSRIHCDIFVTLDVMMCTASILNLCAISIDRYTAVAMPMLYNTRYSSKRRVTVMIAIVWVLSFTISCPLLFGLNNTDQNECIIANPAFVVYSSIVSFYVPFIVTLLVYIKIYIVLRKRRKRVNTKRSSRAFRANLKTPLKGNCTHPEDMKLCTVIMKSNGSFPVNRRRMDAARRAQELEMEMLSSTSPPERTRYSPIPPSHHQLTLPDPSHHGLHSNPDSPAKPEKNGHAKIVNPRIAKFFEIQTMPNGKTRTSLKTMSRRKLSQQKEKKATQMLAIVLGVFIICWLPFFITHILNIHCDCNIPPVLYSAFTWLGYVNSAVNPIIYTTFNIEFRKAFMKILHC
# TEST METHOD NOTES: Inhibition of [3H]spiperone binding to Dopamine receptor D2 from rat striatal membranes
Mark T only for IC50 values smaller than 2000 nM; exact matches and larger values are F.

| COMPOUND | CAT |
| --- | --- |
| OCCN1CCN([C@@H]2C[C@@H](c3ccc(F)cc3)c3ccc(C(F)(F)F)cc32)CC1 (racemic) | T |
| O=C(O)/C=C\C(=O)O.O=C(O)/C=C\C(=O)O.O=C1NCCN1CCN1CCN([C@@H]2C[C@@H](c3ccc(F)cc3)c3ccc(F)cc32)CC1 | T |
| CN1CCN(CCN2CCN([C@H]3C[C@H](c4ccc(F)cc4)c4ccc(F)cc43)CC2)C1=O | F |
| Fc1ccc([C@@H]2C[C@@H](N3CCNCC3)c3ccccc32)cc1.O=C(O)/C=C\C(=O)O.O=C(O)/C=C\C(=O)O | T |
| OCCN1CCN(C2CC(c3ccc(F)cc3)c3ccccc32)CC1 (stereo not drawn) | T |
| O=C(c1ccc(F)cc1)C1CCN(CCn2c(=O)[nH]c3ccccc3c2=O)CC1 | T |
| Cl.Cl.O=C1OCCN1CCCN1CCN(C2CC(c3ccc(F)cc3)c3ccc(F)cc32)CC1 (stereo not drawn) | T |
| O.OC1=NCCN1CCN1CCN(C2CC(c3ccc(O)cc3)c3ccccc32)CC1 (stereo not drawn) | F |

// provenance: ChEMBL document CHEMBL1124016
